system.name: T1, monkey MSLN full-length protein (NCBI: XP_028696439.1) expressed on HEK293T-monkey MSLN cells (monkey)
T1 construct: Whole encoded precursor
T1 chain: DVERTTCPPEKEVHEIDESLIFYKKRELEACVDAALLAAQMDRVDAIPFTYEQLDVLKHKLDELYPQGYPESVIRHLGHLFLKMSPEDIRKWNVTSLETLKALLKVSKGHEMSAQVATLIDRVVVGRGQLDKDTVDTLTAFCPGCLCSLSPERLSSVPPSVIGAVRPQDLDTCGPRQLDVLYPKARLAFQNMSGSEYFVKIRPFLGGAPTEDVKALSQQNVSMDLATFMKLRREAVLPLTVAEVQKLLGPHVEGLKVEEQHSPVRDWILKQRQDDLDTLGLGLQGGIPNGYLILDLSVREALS
test: FACS on HEK293T-monkey MSLN cells;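 also: flow cytometry binding of chimeric antibodies to the cells, with a 2 h incubation on ice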
experimental.readout: pEC50
Quick note: pEC50 means taking -log10 of the concentration in moles per liter.

S009-F7.53.2 (antibody, human IgG1, kappa, V domains shown, human-murine chimeric antibody, human IgG1/kappa constant regions) VH: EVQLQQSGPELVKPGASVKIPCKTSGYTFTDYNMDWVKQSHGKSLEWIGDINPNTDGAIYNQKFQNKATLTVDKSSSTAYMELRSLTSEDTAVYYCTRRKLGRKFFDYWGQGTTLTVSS VL: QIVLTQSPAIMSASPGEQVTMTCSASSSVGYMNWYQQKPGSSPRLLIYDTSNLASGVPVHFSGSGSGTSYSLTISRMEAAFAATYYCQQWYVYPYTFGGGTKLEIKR; 8.95

Data point: S009-F7.67.12 (antibody, human IgG1, kappa, V domains shown, human-murine chimeric antibody, human IgG1/kappa constant regions) VH: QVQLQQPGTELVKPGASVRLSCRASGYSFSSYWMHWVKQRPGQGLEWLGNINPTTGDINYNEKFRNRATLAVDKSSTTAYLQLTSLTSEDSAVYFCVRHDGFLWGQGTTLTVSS VL: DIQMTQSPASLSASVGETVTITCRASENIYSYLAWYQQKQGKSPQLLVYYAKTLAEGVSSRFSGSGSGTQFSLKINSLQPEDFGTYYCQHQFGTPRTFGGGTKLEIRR ; pEC50 = 9.44

Data point: S009-F7.6.17 (antibody, human IgG1, kappa, V domains shown, human-murine chimeric antibody, human IgG1/kappa constant regions) VH: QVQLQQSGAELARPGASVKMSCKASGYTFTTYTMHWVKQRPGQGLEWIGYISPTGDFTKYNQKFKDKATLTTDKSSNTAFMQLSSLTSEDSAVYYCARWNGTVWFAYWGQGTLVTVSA VL: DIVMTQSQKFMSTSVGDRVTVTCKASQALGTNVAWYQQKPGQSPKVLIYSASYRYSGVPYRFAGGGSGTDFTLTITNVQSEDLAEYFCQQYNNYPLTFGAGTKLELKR ; pEC50 = 9.15
